# TEST TARGET: HLA B*1503 (Homo sapiens, UniProt P01889, A329T/A93T/A95T/C349S/D201E/D98Y/E187L/E204Q/K202T/N87E/Q94N/R155S/R180L/S121R/S35A/V306I/V36M/Y140S/Y91S)
# PROTOCOL TEXT: biochemical
# Format: binding
Where a SMILES comes first, the peptide text is derived from it.
IC50 reference
API: value field is a number in nM; no unit string.

CC[C@H](C)[C@H](N)C(=O)N[C@@H](CCSC)C(=O)N[C@@H](CO)C(=O)N[C@@H](CC(C)C)C(=O)N[C@@H](Cc1ccccc1)C(=O)N[C@@H](CO)C(=O)N[C@H](C(=O)N[C@@H](CO)C(=O)N[C@@H](C)C(=O)O)[C@@H](C)O [3102.1063] (H-IMSLFSTSA-OH); 7.7

In plain terms, CC[C@H](C)[C@H](NC(=O)[C@@H]1CCCN1C(=O)[C@@H](NC(=O)[C@H](CO)NC(=O)[C@H](CC(N)=O)NC(=O)[C@H](Cc1ccc(O)cc1)NC(=O)[C@H](CO)NC(=O)[C@H](CCC(N)=O)NC(=O)[C@@H](N)CCSC)C(C)C)C(=O)O [3102.0353] (H-MQSYNSVPI-OH) has a documented IC50 of 0.73

###

pIC50 reference
# TEST TARGET: HLA A*3201 (Homo sapiens, UniProt P04439, A270S/D101S/D185E/E176V/E277Q/F133L/G103R/G107R/G231S/H175R/I121M/I218V/I322F/K168Q/L105A/L300P/L318F/M331R/P208A/P217A/Q94H/R106L/R138Q/S129P/T104I/T323A/T345S/V100E/V321M/V358M)
# PROTOCOL TEXT: biochemical
Where a SMILES comes first, the peptide text is derived from it.
Expect pIC50 as a plain number equal to -log10 of the molar concentration.

Past entries and their recorded results:
CC(C)C[C@H](NC(=O)[C@H](Cc1ccc(O)cc1)NC(=O)[C@H](CC(N)=O)NC(=O)[C@H](Cc1ccccc1)NC(=O)[C@H](Cc1c[nH]c2ccccc12)NC(=O)[C@H](CC(C)C)NC(=O)[C@H](CC(C)C)NC(=O)[C@@H](N)CC(C)C)C(=O)N[C@@H](Cc1ccccc1)C(=O)O [3102.0301] (H-LLLWFNYLF-OH); 8.82
CC[C@H](C)[C@H](NC(=O)[C@H](CCSC)NC(=O)[C@@H](NC(=O)[C@H](CO)NC(=O)[C@H](CO)NC(=O)[C@H](Cc1ccc(O)cc1)NC(=O)[C@H](CO)NC(=O)[C@H](CCSC)NC(=O)[C@@H](N)CCCCN)C(C)C)C(=O)O [3102.0497] (H-KMSYSSVMI-OH); 7.85
CC(C)C[C@H](NC(=O)[C@@H](NC(=O)[C@@H](NC(=O)[C@H](CO)NC(=O)[C@H](CC(N)=O)NC(=O)[C@H](CCC(N)=O)NC(=O)[C@@H](N)CC(C)C)C(C)C)C(C)C)C(=O)N[C@@H](CCC(N)=O)C(=O)N[C@@H](Cc1ccccc1)C(=O)O [3102.1263] (H-LQNSVVLQF-OH); 8.14
CC[C@H](C)[C@H](NC(=O)[C@@H](NC(=O)[C@H](CCCNC(=N)N)NC(=O)[C@@H]1CCCN1C(=O)[C@H](Cc1ccccc1)NC(=O)[C@H](Cc1ccccc1)NC(=O)[C@H](CCSC)NC(=O)[C@@H](NC(=O)[C@H](C)N)[C@@H](C)CC)[C@@H](C)O)C(=O)O [3102.0423] (H-AIMFFPRTI-OH); 8.96

In plain terms, CC[C@H](C)[C@H](NC(=O)[C@H](CC(C)C)NC(=O)[C@H](CC(C)C)NC(=O)[C@@H](NC(=O)[C@H](Cc1ccccc1)NC(=O)[C@H](CO)NC(=O)[C@H](CC(N)=O)NC(=O)[C@@H](NC(=O)[C@@H](N)CO)C(C)C)[C@@H](C)O)C(=O)O [3102.0331] (H-SVNSFTLLI-OH) has a documented pIC50 of 8.59

In plain terms, CC(C)C[C@H](NC(=O)[C@@H]1CCCN1C(=O)[C@H](CO)NC(=O)[C@H](Cc1ccccc1)NC(=O)[C@H](Cc1ccc(O)cc1)NC(=O)[C@H](CCCCN)NC(=O)[C@H](C)NC(=O)[C@@H](NC(=O)[C@H](C)N)C(C)C)C(=O)O [3102.0978] (H-AVAKYFSPL-OH) has a documented pIC50 of 6.55

In plain terms, CC[C@H](C)[C@H](NC(=O)[C@@H](NC(=O)[C@H](Cc1ccccc1)NC(=O)[C@H](Cc1ccccc1)NC(=O)[C@H](CC(C)C)NC(=O)[C@H](Cc1ccccc1)NC(=O)[C@H](CC(=O)O)NC(=O)[C@@H](NC(=O)[C@@H](N)CCCCN)[C@@H](C)CC)[C@@H](C)CC)C(=O)O [3102.0306] (H-KIDFLFFII-OH) has a documented pIC50 of 8.70

Ref: paper PMC2248166
